- TARGET: T1, human PCSK9 (proprotein convertase subtilisin/kexin type 9), His-tagged, full-length (human, UniProt A8T644 31-152; Q8NBP7 153-692, limits assumed)
- T1 construct: The secreted protein is the prodomain plus the catalytic/Cys-rich part (N-terminus S153) after autocleavage; also called His-PCSK9; NARC-1
- T1 sequence (A8T644 31-152 limits assumed, chain 1 of 2): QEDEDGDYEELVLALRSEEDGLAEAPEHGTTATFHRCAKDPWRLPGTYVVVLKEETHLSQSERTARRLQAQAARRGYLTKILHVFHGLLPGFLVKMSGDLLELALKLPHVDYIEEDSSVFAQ
- T1 sequence (A8T644 other isoform, or with tags, fused parts or gaps limits assumed, chain 2 of 2): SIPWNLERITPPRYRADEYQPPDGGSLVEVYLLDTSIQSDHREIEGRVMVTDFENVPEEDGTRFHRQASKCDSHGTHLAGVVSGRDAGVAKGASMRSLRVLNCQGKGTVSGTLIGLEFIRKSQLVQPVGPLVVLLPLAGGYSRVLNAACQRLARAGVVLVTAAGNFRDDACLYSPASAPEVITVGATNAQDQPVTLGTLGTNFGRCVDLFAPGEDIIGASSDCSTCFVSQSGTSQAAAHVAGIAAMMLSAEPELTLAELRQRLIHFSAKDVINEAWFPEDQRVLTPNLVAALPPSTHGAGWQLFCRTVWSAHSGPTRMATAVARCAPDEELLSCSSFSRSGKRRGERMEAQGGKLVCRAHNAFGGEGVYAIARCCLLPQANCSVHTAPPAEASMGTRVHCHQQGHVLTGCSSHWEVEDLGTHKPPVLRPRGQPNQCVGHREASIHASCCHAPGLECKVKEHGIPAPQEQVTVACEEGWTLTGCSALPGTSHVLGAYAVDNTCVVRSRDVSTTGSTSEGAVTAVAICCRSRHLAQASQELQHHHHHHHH
- ASSAY_NOTES: SPR, SensiQ Pioneer FE, amine-coupled protein, OneStep gradient injection (Method 3)
Bridge positions count the residues as written; N and C are the ends. Square brackets hold non-standard residues; d marks the D form. Dap = NC[C@H](N)C(=O)O
For each record, write down the corresponding Kd.
Give bare numbers, in µM.

Recorded results for 2 binders are shown here.
Data request: Data request, read-out Kd, for Ac-GSGCWNL[Dap]RIGSQGC-NH2 (disulfide 4-15; SMILES CC[C@H](C)[C@@H]1NC(=O)[C@H](CCCNC(=N)N)NC(=O)[C@H](CN)NC(=O)[C@H](CC(C)C)NC(=O)[C@H](CC(N)=O)NC(=O)[C@H](Cc2c[nH]c3ccccc23)NC(=O)[C@@H](NC(=O)CNC(=O)[C@H](CO)NC(=O)CNC(C)=O)CSSC[C@@H](C(N)=O)NC(=O)CNC(=O)[C@H](CCC(N)=O)NC(=O)[C@H](CO)NC(=O)CNC1=O, also called Ac-GSG-CWNL(Dpr)RIGSQGC-NH2) [Compound 97]
Data returned: 522

Data request: Data request, read-out Kd, for Ac-CFIPWNLQRIGLLC-NH2 (disulfide 1-14 (inferred)) [Compound 31]
Data returned: 5.83

Further cases:
Data request: Data request, read-out Kd, for Ac-DLMPWNLVRIGLAR-NH2 [Compound 55]
Data returned: 96.5
